parameter_measured: melting point

Some entries whose results are on file:
[[record]]
compound = "CC[C@H](C)[C@H](Nc1nc(C(=O)c2ccccc2)ns1)C(=O)N1CCC[C@H]1C(=O)O [Example 16]"
measurement = "132 to 134 °C"

[[record]]
compound = "COc1nsc(N[C@@H](CC(C)C)C(=O)N2CCC[C@H]2C(=O)O)n1 [Example 11A]"
measurement = "89 to 92 °C"

[[record]]
compound = "COc1nsc(NC(=O)[C@H](C)NC(=O)[C@H](Cc2ccccc2)NC(=O)OCc2ccccc2)n1 [apo504]"
measurement = "161 to 162 °C"

[[record]]
compound = "CC[C@H](C)[C@H](Nc1nc(OC)ns1)C(=O)N1CCC[C@H]1C(=O)O [Example 13]"
measurement = "112 to 114 °C"


Would you kindly look at the next entry?
Give melting point for the following compound: CC[C@H](C)[C@H](Nc1nc(OC)ns1)C(=O)N1CCC[C@H]1C(=O)OC [Example 12A] 129 to 130 °C

---

- measured_on: Cathepsin B (Homo sapiens, UniProt P07858)
- Construct: purchased Athens Research and Technology, Inc
- protocol: Inhibition of cathepsin B, enzyme inactivation kinetics
- Type: biochemical
- condition_description: 25° C., pH 6.0
parameter_measured: k3 (s⁻¹)

[[record]]
compound = "CC(C)C[C@H](Nc1nc(-c2ccccc2)ns1)C(=O)N1CCC[C@H]1C(=O)O [apo5O9]"
readout_unit = "s⁻¹"
measurement = 0.013

[[record]]
compound = "COc1nsc(NC(=O)NC(CC(C)C)C(=O)NCCC(C)C)n1 (centres unmarked) [apo1073]"
readout_unit = "s⁻¹"
measurement = 0.032

[[record]]
compound = "COc1nsc(N[C@@H](CC(C)C)C(=O)N2CCC[C@H]2C(=O)O)n1 [apo501]"
readout_unit = "s⁻¹"
measurement = 0.015

[[record]]
compound = "COc1nsc(NC(=O)N[C@@H](CC(C)C)C(=O)N2CCC[C@H]2C(=O)O)n1 [apo503]"
readout_unit = "s⁻¹"
measurement = 0.014

[[record]]
compound = "COc1nsc(NC(=O)[C@H](C)NC(=O)[C@H](Cc2ccccc2)NC(=O)OCc2ccccc2)n1 [apo504]"
readout_unit = "s⁻¹"
measurement = 0.032


A: COc1nsc(NC(=O)[C@H](Cc2ccccc2)NC(=O)OCc2ccccc2)n1 [apo201]
B: CC(C)CC(Nc1nc(C(=O)O)ns1)C(=O)N1CCCC1C(=O)O (centres unmarked) [apo310]
C: Cc1nsc(N[C@@H](CC(C)C)C(=O)N2CCC[C@H]2C(=O)O)n1 [apo510]
In this exercise, place the 3 compounds in ascending sequence of their recorded k3. Rank the items, then write their labels in that order. A, C, B
